meta.source: paper PMC10397247

Target: T1, 4H2907-AA
T1 chain: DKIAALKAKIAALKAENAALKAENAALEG
Experiment: two-hybrid library CCmax;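 note: natural log of median RNA to DNA barcode read ratio; higher means stronger binding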
Settings: mean of both orientations
QUANTITY: interaction score
Give the figure only, with no unit attached.

Known results for binders:
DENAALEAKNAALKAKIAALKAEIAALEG [4H1513-AA] : -1.65
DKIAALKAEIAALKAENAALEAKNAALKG [4H2648-AA] : 1.45
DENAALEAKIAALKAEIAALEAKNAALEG [4H1351-AA] : -1.52
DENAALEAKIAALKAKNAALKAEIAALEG [4H1401-AA] : -1.63
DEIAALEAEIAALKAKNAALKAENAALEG [4H123-AA] : 0.0402

If you can, please state the reported interaction score value of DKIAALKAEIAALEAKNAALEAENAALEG [4H2611-AA] . -1.28

Give its interaction score value. Item: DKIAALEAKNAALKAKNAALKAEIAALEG [4H2553-AA] -1.73
